assay: Cytotoxicity determination in HepG2.2.15 cells (CCK-8 cell viability); assay type: cell-based; settings: human, 6 days treatment, CCK-8 assay, highest concentration 100 uM

- Molecule: "CCOC(=O)C1=C(CN2CC(F)(F)[C@@H]3CN(C(=O)C(C)(C)C(=O)O)C[C@@H]32)NC(c2nccs2)=N[C@H]1c1cccc(F)c1Cl (single isomer, unassigned) [Compound 207]"
  CC50 at 6 days: "> 50 µM"
- Molecule: "COC(=O)C1=C(CN2CC(F)(F)[C@@H]3[C@H]2CN(C)N3CCC(C)(C)C(=O)O)NC(c2nccs2)=N[C@H]1c1ccc(F)c(F)c1C (single isomer, unassigned) [Compound 101]"
  CC50 at 6 days: "> 3.1 µM"
- Molecule: "COC(=O)C1=C(CN2CC(F)(F)[C@@H]3CN(CC(C)(C)C(=O)O)C[C@@H]32)NC(c2nccs2)=N[C@H]1c1ccc(F)cc1Cl (single isomer, unassigned) [Compound 20B]"
  CC50 at 6 days: "> 100 µM"
